Entry source: PubChem BioAssay AID1159580

Quick list: normalized growth per entry.
procedure.details: chemical genetic growth profiling, strain panel (AID 1159580);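 further: tested at 20 µM; growth read once vehicle control cultures reached saturation at 30 °C; 1 = growth at the plate median or of vehicle wells; lower values mean less growth of the strain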
conditions: S. cerevisiae deletion strains, growth OD, locus YGL248W, strain PDE1, stronger effect = lower value
Hit rate of the full screen: of about 5,500 compounds, about 2,000 (36%) were called active. Roughly 18% stayed inconclusive and do not appear here. Some of the results follow.
measurement.kind: normalized growth

| molecule | experimental.value |
| --- | --- |
| COc1ccc(C(=O)O)c(O)c1OC | 1.02 |
| CC(=O)OCC1=C(C(=O)O)N2C(=O)[C@@H](NC(=O)CCCC(N)C(=O)O)C2SC1 (stereo not given in full) | 1 |
| CC(=O)O[C@@H]1CC[C@]2(C)C3CC[C@]4(C)C(=O)CCC4C3CC[C@H]2C1 (stereo not given in full) | 0.959 |
| O=C(O)c1cc(=O)c2cccc(O)c2[nH]1 | 0.991 |
| NC(N)=NC(N)=Nc1ccccc1 | 1.02 |

====

procedure.details: chemical genetic growth profiling, strain panel (AID 1159580)
conditions: S. cerevisiae deletion strains, growth OD, locus YKR001C, strain vps1, stronger effect = lower value
Screen size: about 5,500 compounds; about 2,000 (36%) were called active. Roughly 18% stayed inconclusive and do not appear here. The list shows a part of the results. *1 amine or outer side, *2 acyl side, *3 side chain or, on linkers, in order; H or OH if unused. Where a SMILES comes first, the peptide text is derived from it. Bridges are numbered along the chain shown (N, C = ends). [ ]: non-standard residue; d: D form. The star is where a group is joined. ξ: configuration not given here. ΔAla(E,3-NHCONH2) = NC(=O)N/C=C(/N)C(=O)O; X2 = NC1=NCCC(C(N[*:1])C(=O)[*:2])N1; ξβ3hOrn = NCCCC(N)CC(=O)*; Dap = NC[CH](N)C(=O)O

| compound | normalized growth |
| --- | --- |
| COC(=O)C[C@H]1C(C)(C)[C@@H](O)[C@@H]2CC3=C4C=C(OC)O[C@@H](c5ccoc5)[C@]4(C)CCC3[C@@]1(C)C2=O (stereo partly drawn) | 0.992 |
| NCCCC(N)CC(=O)NCC1NC(=O)C(CO)NC(=O)C(N)CNC(=O)C(C2CCN=C(N)N2)NC(=O)/C(=C\NC(N)=O)NC1=O (stereo not drawn) (H-[Dap]S[Dap](ξβ3hOrn)[ΔAla(E,3-NHCONH2)][X2]; lactam 1-C; configuration not given here) | 1.01 |
| COc1cc(-c2oc3cc(O)ccc3c(=O)c2O)cc(OC)c1OC | 1.01 |
| CO[C@@]1(NC(=O)Cc2cccs2)C(=O)N2C(C(=O)O)=C(COC(N)=O)CS[C@@H]21 | 0.995 |
| CCOC([O-])=Nc1c[n+](N2CCOCC2)no1 | 0.976 |
| NC(=O)NO | 0.992 |
| CC[C@H]1CN2CCc3cc(OC)c(OC)cc3C2C[C@@H]1CC1NCCc2cc(OC)c(OC)cc21 (stereo partly drawn) | 1 |
| OC(c1cc(C(F)(F)F)nc2c(C(F)(F)F)cccc12)C1CCCCN1 (stereo not drawn) | 1 |

====

procedure.details: chemical genetic growth profiling, strain panel (AID 1159580)
conditions: S. cerevisiae deletion strains, growth OD, locus YIL066C, strain RNR3, stronger effect = lower value
About 2,000 (36%) of roughly 5,500 compounds were called active. Roughly 18% stayed inconclusive and do not appear here. The list shows a part of the results.
measurement.kind: normalized growth

| molecule | measurement.kind | experimental.value |
| --- | --- | --- |
| COc1c2c(cc3c1OCO3)C13C=C[C@H](OC)CC1N(C2)CC3O (stereo partly drawn) | normalized growth | 1 |
| COc1cc(NS(=O)(=O)c2ccc(N)cc2)ncn1 | normalized growth | 0.976 |
| COc1cc(/C=C/C=O)cc(OC)c1OC | normalized growth | 1.02 |

====

procedure.details: chemical genetic growth profiling, strain panel (AID 1159580)
conditions: S. cerevisiae deletion strains, growth OD, locus YKL190W, strain CNB1
The campaign covered roughly 5,500 compounds. About 2,000 (36%) were called active. Roughly 18% stayed inconclusive and do not appear here. Rule as the data show it: active = normalized growth mostly below about 0.91 (no sharp cut-off); inconclusive = no clear call, values can overlap the other calls; inactive = mostly above about 0.92. The list shows a part of the results.
Labels: active, inactive

| compound | assigned.label |
| --- | --- |
| CC(=O)OCC(=O)[C@@]12OC3(CCCC3)O[C@@H]1CC1C3CCC4=CC(=O)C=C[C@]4(C)[C@@]3(F)[C@@H](O)C[C@@]12C (stereo partly specified) | inactive |
| CN(C)/C=C1/C(=O)NN=C1CSc1ccccn1 | inactive |
| C1CCC(C(CC2CCCCN2)C2CCCCC2)CC1 (stereo unspecified) | active |
| Cc1ccc(-c2nn(-c3ccccc3)c(=O)c3ccccc23)cc1C | inactive |
| COc1cc(/C=C2/N=C(c3ccccc3I)OC2=O)cc(OC)c1OC | inactive |
| CC(=O)C1C(=O)CC(c2ccc(Cl)cc2)CC1=O (stereo unspecified) | active |

====

procedure.details: chemical genetic growth profiling, strain panel (AID 1159580);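 further: tested at 20 µM; growth read once vehicle control cultures reached saturation at 30 °C; 1 = growth at the plate median or of vehicle wells; lower values mean less growth of the strain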
conditions: S. cerevisiae deletion strains, growth OD, locus YLR330W, strain CHS5, stronger effect = lower value
The whole screen tested about 5,500 compounds, of which about 2,000 (36%) were called active. Another 18% or so got no clear call; they are omitted. Some of the results follow. Where a SMILES comes first, the peptide text is derived from it. [ ]: non-standard residue; d: D form. Orn = NCCC[CH](N)C(=O)O
# maps each entry to its normalized growth
measurement.kind: normalized growth

| compound | measurement.kind | experimental.value |
| --- | --- | --- |
| CC[C@@H](CO)NC(=O)[C@@H]1C=C2c3cccc4[nH]cc(c34)C[C@H]2N(C)C1 | normalized growth | 0.992 |
| NC[C@H]1O[C@H](O[C@H]2C(O[C@@H]3O[C@H](CO)[C@@H](O)[C@H]3O)[C@@H](O)[C@H](N)C[C@@H]2N)[C@H](N)[C@@H](O)[C@@H]1O (some centres undefined) | normalized growth | 0.997 |
| COc1cc2c(cc1OC)-c1c(oc3c4c(ccc3c1=O)OC(C(C)C)C4)CO2 (centres undefined) | normalized growth | 0.998 |
| COc1cc(NS(=O)(=O)c2ccc(N)cc2)ncn1 | normalized growth | 0.998 |
| CCNc1nc(Cl)nc(NCC)n1 | normalized growth | 0.994 |
| CCCCCCCCCCCCCCCCCCOCC(O)CO (centres undefined) | normalized growth | 1.02 |
| CC(C)CC1NC(=O)C(CCCN)NC(=O)C(C(C)C)NC(=O)C2CCCN2C(=O)C(Cc2ccccc2)NC(=O)C(CC(C)C)NC(=O)C(CCCN)NC(=O)C(C(C)C)NC(=O)C2CCCN2C(=O)C(Cc2ccccc2)NC1=O (centres undefined) (cyclo(FPV[Orn]LFPV[Orn]L); configuration not given here) | normalized growth | 1.01 |
| COc1cc2cc3c4cc(OC)c(OC)cc4cc[n+]3c(C)c2cc1OC | normalized growth | 1.01 |
| C=C(C)[C@H]1Cc2c(ccc3c2O[C@@H]2COc4cc(OC)c(OC)cc4[C@@H]2C3=O)O1 | normalized growth | 1.02 |

====

procedure.details: chemical genetic growth profiling, strain panel (AID 1159580);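 further: tested at 20 µM; growth read once vehicle control cultures reached saturation at 30 °C; 1 = growth at the plate median or of vehicle wells; lower values mean less growth of the strain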
conditions: S. cerevisiae deletion strains, growth OD, locus YGL227W, strain vid30, stronger effect = lower value
The campaign covered roughly 5,500 compounds. About 2,000 (36%) were called active. About 18% were inconclusive and are not listed. Some of the results follow.

| compound | normalized growth |
| --- | --- |
| O=C(CCc1ccc(O)cc1)c1c(O)cc(O)cc1O[C@@H]1O[C@H](CO)[C@@H](O)[C@H](O)[C@H]1O | 1.02 |
| CNCC[C@@H](Oc1ccccc1)c1ccccc1 | 0.97 |
| C[C@]12CCC3C(CC[C@H]4C[C@H](OS(=O)(=O)O)CC[C@]34C)C1CCC2=O (stereo partly drawn) | 1.05 |
| NCCc1c[nH]c2ccccc12 | 0.937 |
| CC(NCCC(c1ccccc1)c1ccccc1)c1ccccc1 (stereo not drawn) | 1 |
| c1ccc2c(Cc3c[nH]c4ccccc34)c[nH]c2c1 | 0.154 |
| O=C1c2ccccc2C(=O)C1c1ccccc1 | 0.978 |
| CC(=O)O[C@@H]1CC[C@]2(C)C3CC[C@]4(C)C(=O)CCC4C3CC[C@H]2C1 (stereo partly drawn) | 0.989 |

====

procedure.details: chemical genetic growth profiling, strain panel (AID 1159580);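 further: tested at 20 µM; growth read once vehicle control cultures reached saturation at 30 °C; 1 = growth at the plate median or of vehicle wells; lower values mean less growth of the strain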
conditions: S. cerevisiae deletion strains, growth OD, locus YDL192W, strain arf1, stronger effect = lower value
Hit rate of the full screen: of about 5,500 compounds, about 2,000 (36%) were called active. Roughly 18% stayed inconclusive and do not appear here. The list shows a part of the results. *1 amine or outer side, *2 acyl side, *3 side chain or, on linkers, in order; H or OH if unused. Where a SMILES comes first, the peptide text is derived from it. Bridges are numbered along the chain shown (N, C = ends). [ ]: non-standard residue; d: D form. The star is where a group is joined. ξ: configuration not given here. ΔAla(E,3-NHCONH2) = NC(=O)N/C=C(/N)C(=O)O; X2 = NC1=NCCC(C(N[*:1])C(=O)[*:2])N1; ξβ3hOrn = NCCCC(N)CC(=O)*; Dap = NC[CH](N)C(=O)O

| compound | normalized growth |
| --- | --- |
| CCNc1nc(Cl)nc(NCC)n1 | 1 |
| CO[C@H]1C[C@H](O[C@H]2[C@H](C)[C@@H](OC3O[C@H](C)C[C@H](N(C)C)[C@H]3OC(C)=O)[C@@H](C)C[C@]3(CO3)C(=O)[C@H](C)[C@@H](OC(C)=O)[C@@H](C)[C@@H](C)OC(=O)[C@@H]2C)O[C@@H](C)[C@@H]1OC(C)=O (stereo not given in full) | 0.989 |
| CCOc1ccc(NC(C)=O)cc1 | 0.991 |
| COc1ccc2c(c1OC)OC[C@@H](c1ccc(OC)c(OC)c1OC)C2 | 1.01 |
| CN[C@@H]1[C@@H](O[C@H]2O[C@H](CO)[C@@H](N)[C@H](O)[C@H]2O)O[C@H]2C[C@@H](N)[C@H](O[C@H]3[C@H](O)[C@@H](O)[C@H](N)C[C@@H]3N)O[C@@H]2[C@@H]1O | 1.01 |
| COc1ccc2c(=O)ccoc2c1 | 1.01 |
| NC(N)=NC(N)=Nc1ccccc1 | 0.998 |
| CC(=O)Oc1cccc(C(=O)O)c1OC(C)=O | 1.02 |
| COc1ccc(C(=O)c2ccc(O)cc2)c(O)c1O | 0.997 |
| CC(=O)O[C@H]1CC[C@]2(C)C3CC[C@@]4(C)C(CC5O[C@@]6(CCC(C)CO6)[C@@H](C)C54)C3CC[C@H]2C1 (stereo not given in full) | 0.987 |
| CC(=O)OCC(=O)[C@@]12OC3(CCCC3)O[C@@H]1CC1C3CCC4=CC(=O)C=C[C@]4(C)[C@@]3(F)[C@@H](O)C[C@@]12C (stereo not given in full) | 1 |
| Cc1c(NC(=O)c2cccnc2)c(=O)n(-c2ccccc2)n1C | 0.994 |
| NCCCC(N)CC(=O)NCC1NC(=O)C(CO)NC(=O)C(N)CNC(=O)C(C2CCN=C(N)N2)NC(=O)/C(=C\NC(N)=O)NC1=O (stereo not drawn) (H-[Dap]S[Dap](ξβ3hOrn)[ΔAla(E,3-NHCONH2)][X2]; lactam 1-C; configuration not given here) | 0.998 |
| COc1ccc([C@H]2COc3c(ccc(O)c3OC)C2)c(OC)c1O | 0.971 |
| CCOc1ccc(C(=O)c2cc(O)c(OC)c(OC)c2O)cc1 | 0.957 |
